- System: LOC_OS05G43570-cb004;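 note: purified Escherichia coli-expressed rice kinase domain construct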
- Procedure Summary: thermal shift delta Tm vs DMSO control; higher = stronger stabilization (binding)
- Stated Conditions: 12.5 µM; protein concentration 2 µM
Classification field. Basis: thermal shift delta Tm. Definitions: low band = under 0.2 °C, middle band = from 0.2 °C up to 0.5 °C, high band = 0.5 °C and over

Please review the entries below; each comes with its answer.
>>> cat("C[C@H](CN(C)C)Oc1nc(Nc2cc3cccc(Cl)c3cn2)cnc1C#N")
"middle band"
>>> cat("Cc1cc(C)c(/C=C2\\C(=O)Nc3ccccc32)[nH]1 [Semaxanib (SU5416)]")
"middle band"
>>> cat("CC(C)(C)c1cnc(CSc2cnc(NC(=O)C3CCNCC3)s2)o1")
"middle band"
>>> cat("C[C@@H](Oc1cc(-c2cnn(C3CCNCC3)c2)cnc1N)c1c(Cl)ccc(F)c1Cl")
"middle band"
>>> cat("O=C(O)c1ccc(Nc2ncc3c(n2)-c2ccc(Cl)cc2C(c2c(F)cccc2F)=NC3)cc1")
"middle band"

Lookup: Which bin, given its thermal shift delta Tm, does Cc1ccc(C(=O)Nc2ccc(Oc3cc4cnn(C)c4cc3-c3cn[nH]c3)c(F)c2)c(=O)n1-c1ccc(F)cc1 occupy?
Found: high band

Lookup: Hello team, could you let me know which band the following compound falls into: Nc1cccc(S(=O)(=O)N2CCCN(S(=O)(=O)c3ccc4c(c3)OCCO4)CC2)c1
Found: low band

Lookup: Exercise: read the entry Cn1cc(-c2ccc3nnc(Sc4ccc5ncccc5c4)n3n2)cn1 and state which class it falls under.
Found: middle band

Lookup: Assign a category based on measured thermal shift delta Tm for CCc1cnn2c(NCc3ccc[n+]([O-])c3)cc(N3CCCC[C@H]3CCO)nc12 and give only the class name.
Found: low band

Lookup: Field: class (thermal shift delta Tm) — entry: CCOc1cc2ncc(C#N)c(Nc3ccc(OCc4ccccn4)c(Cl)c3)c2cc1NC(=O)/C=C/CN(C)C [Neratinib (HKI-272)]
Found: middle band

Lookup: Exam item: assign Cc1c(NC(=O)c2ccc(C(C)(C)C)cc2)cccc1-c1cn(C)c(=O)c(Nc2ccc(C(=O)N3CCOCC3)cc2)n1 to the correct category.
Found: high band

Lookup: Class for Cn1cc(-c2ccc(F)c(C(F)(F)F)c2)nc1C1CCN(c2ncnc3[nH]ncc23)CC1 ?
Found: middle band

Lookup: Which bin should I file C[C@@H]1COCCN1c1cc(=O)n2c(n1)N(Cc1cncc(Cl)c1)[C@H](C(F)(F)F)CC2 under?
Found: middle band

Lookup: Each compound maps to one class by thermal shift delta Tm. Which class for Cn1sc(=O)n(Cc2ccccc2)c1=O ?
Found: low band
